Target: CDK19/CycC (Homo sapiens, UniProt Q9BWU1)
Sequence (Q9BWU1 whole entry): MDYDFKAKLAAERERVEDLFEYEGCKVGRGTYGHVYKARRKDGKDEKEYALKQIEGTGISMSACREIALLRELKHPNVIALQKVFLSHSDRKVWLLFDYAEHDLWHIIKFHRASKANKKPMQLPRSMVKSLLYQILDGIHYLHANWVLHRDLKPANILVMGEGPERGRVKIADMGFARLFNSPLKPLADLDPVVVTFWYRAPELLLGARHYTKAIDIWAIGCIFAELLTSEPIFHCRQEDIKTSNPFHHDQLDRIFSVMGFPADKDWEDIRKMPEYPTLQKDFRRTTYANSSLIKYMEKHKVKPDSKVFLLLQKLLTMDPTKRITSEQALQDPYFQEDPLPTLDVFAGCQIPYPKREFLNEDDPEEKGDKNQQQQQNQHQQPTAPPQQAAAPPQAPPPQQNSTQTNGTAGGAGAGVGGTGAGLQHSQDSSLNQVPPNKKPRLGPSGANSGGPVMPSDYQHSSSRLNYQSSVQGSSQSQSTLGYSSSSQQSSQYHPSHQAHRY
Sequence (P24863 whole entry partner): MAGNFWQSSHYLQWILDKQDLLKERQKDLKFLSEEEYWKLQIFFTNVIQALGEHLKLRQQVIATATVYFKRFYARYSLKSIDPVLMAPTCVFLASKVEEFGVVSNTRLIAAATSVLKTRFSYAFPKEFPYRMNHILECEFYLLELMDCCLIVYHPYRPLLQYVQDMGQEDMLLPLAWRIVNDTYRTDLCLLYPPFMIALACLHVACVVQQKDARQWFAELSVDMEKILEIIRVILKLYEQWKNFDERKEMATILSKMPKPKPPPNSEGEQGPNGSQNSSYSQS
Assay: LanthaScreen europium kinase binding assay (FRET displacement), CDK19
Settings: his-tagged CDK19/CycC 5 nM, tracer 10 nM, 3 h incubation
reported endpoint: IC50 (nM)
Give bare numbers, in nM.

Answered cases to consult:
{"columns": ["compound structure", "unit annotation", "IC50"],
 "data": [
  ["COc1cc(N2CCN(C)CC2)ccc1Nc1ncc(Nc2ccncc2)cn1", "nM", 10000],
  ["CC(C)Cc1ccc(Nc2ncc(Nc3ccncc3NC3CCCC3)cn2)cc1", "nM", 76],
  ["CC(C)Cc1ccc(Nc2ncc(C3(c4ccncc4)CC3)cn2)cc1", "nM", 20],
  ["CCCc1ccc(Nc2ncc(Nc3ccncc3)cn2)cc1", "nM", 29]
]}

Return reported IC50 values for all items listed beneath this line.
1. Cc1ccc2nccc(Nc3cnc(Nc4ccc(CC(C)C)cc4)nc3)c2c1
2. CC(C)Cc1ccc(Nc2ncc(Nc3ccnc(C(C)C)c3)cn2)cc1

[24, 88]

For each entry beneath this line, provide reported IC50.
1. c1cc(Nc2cnc(Nc3ccc4c(c3)CCCC4)nc2)ccn1
2. CC(C)Cc1ccc(Nc2ncc(Nc3ccnc(N)c3)cn2)cc1
3. Cc1cncc(F)c1C(=O)c1cnc(Nc2ccc(CC(C)C)cc2)nc1
4. Cc1cc(CC(C)C)cc(Nc2ncc(Nc3ccncc3)cn2)c1
5. Cc1ccc(-c2ccc(Nc3ccc(CC(C)C)cc3)nc2)cc1
6. Cc1cc(CC(C)C)ccc1Nc1ncc(C(=O)c2ccncc2OC2CCCC2)cn1
7. CCCc1ccc(Nc2ncc(Nc3ccnc4ccccc34)cn2)cc1
8. CC(C)Cc1cccc(Nc2ncc(Nc3ccnc(C(C)C)c3)cn2)c1

1: 41; 2: 18; 3: 6490; 4: 25000; 5: 1080; 6: 5; 7: 96; 8: 903

Dear colleague, could you please provide IC50 for the compounds listed below?
1. c1cc(Nc2ncc(Nc3ccncc3)cn2)cc(C2CC2)c1
2. CC(C)Cc1ccc(Nc2ncc(-c3ccncc3)cn2)cc1
3. Fc1ccc(Nc2ncc(Oc3ccncc3)cn2)cc1
4. CC(C)Cc1ccc(Nc2ncc(Nc3ccncc3C(F)(F)F)cn2)cc1

[5690, 1800, 10000, 3]
